Please respond with reported pKi for every item in the list.
tested-on: 5-HT1A receptor (Rattus norvegicus, UniProt P19327)
Sequence (P19327 whole entry): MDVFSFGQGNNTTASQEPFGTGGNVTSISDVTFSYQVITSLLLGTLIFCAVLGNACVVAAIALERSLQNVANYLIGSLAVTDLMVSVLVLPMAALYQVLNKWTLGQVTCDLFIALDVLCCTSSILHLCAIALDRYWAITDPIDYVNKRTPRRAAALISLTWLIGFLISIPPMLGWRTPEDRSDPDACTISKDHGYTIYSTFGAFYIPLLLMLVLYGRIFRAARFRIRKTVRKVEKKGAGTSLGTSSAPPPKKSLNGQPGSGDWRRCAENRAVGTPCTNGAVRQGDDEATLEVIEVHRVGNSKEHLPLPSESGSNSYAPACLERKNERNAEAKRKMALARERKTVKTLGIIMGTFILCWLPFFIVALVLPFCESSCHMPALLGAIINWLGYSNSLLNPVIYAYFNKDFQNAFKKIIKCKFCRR
Notebook: values listed as pKi are -log10 of the concentration (mol/L).

Asked: Determine reported pKi for COc1ccccc1OCCNCCCCC(=O)NC1CCCCC1 ; test system: 5-HT1A receptor (Rattus norvegicus, UniProt P19327).
Given back: 9.72

Asked: Determine reported pKi for NC(=O)Nc1cccc(OCCNCCCCC(=O)NC2CCCCCC2)c1 ; test system: 5-HT1A receptor (Rattus norvegicus, UniProt P19327).
Given back: 9.89

Asked: Determine reported pKi for COc1ccccc1OCCNCCCCC(=O)NC(C)(C)C ; test system: 5-HT1A receptor (Rattus norvegicus, UniProt P19327).
Given back: 9.27

Asked: Determine reported pKi for CC(=O)Nc1cccc(OCCNCCCCC(=O)NCC(C)(C)C)c1 ; test system: 5-HT1A receptor (Rattus norvegicus, UniProt P19327).
Given back: 9.06

Asked: Determine reported pKi for CC(=O)Nc1cccc(OCCNCCCCC(=O)NC2CCCCC2)c1 ; test system: 5-HT1A receptor (Rattus norvegicus, UniProt P19327).
Given back: 9.43

Asked: Determine reported pKi for COc1ccccc1OCCNCCCCC(=O)NCC(C)(C)C ; test system: 5-HT1A receptor (Rattus norvegicus, UniProt P19327).
Given back: 9.49
